- TEST_SUMMARY: refractive index (Na D-line) (dimensionless)
- REPORTED_CONDITIONS: 298.15 K; 101.33 kPa; Liquid; Standard Abbe refractometry
READOUT_LABEL: refractive index
Answers are plain numbers.

Worked cases, answers included:
COMPOUND	READOUT_LABEL	ASSAY_RESULT
CCCCCCO [hexan-1-ol]	refractive index	1.4158
CCCCCCCCCCCCO [dodecan-1-ol]	refractive index	1.44058

Could I get refractive index for every one of these entries?
1. CCCCCO [pentan-1-ol]
2. CCCCCCCCCCO [decan-1-ol]
3. O [water]
4. CCCO [propan-1-ol]

Reply |
1. 1.40703
2. 1.43436
3. 1.33248
4. 1.38305

Could I get refractive index for every one of these entries?
1. CCCCCCCCO [octan-1-ol]
2. CCCCCCCCCO [nonan-1-ol]

Reply |
1: 1.42695; 2: 1.43084
